B1: WEE1 (parent)
chain: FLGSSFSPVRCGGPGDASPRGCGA

- Variants of: B1
- assay_comment: protein stability index of a GFP-peptide fusion (GPS, HEK-293T) (PSI 1-6); higher = more stable;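 also: lentivirally expressed fusions sorted by FACS into six bins by GFP to DsRed ratio, PSI derived from sequencing read proportions per bin multiplied by bin number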
- applied_conditions: c terminus: a fixed tail appended
recorded_metric: protein stability index
// no unit, no text: just the number

C22E; 1.95
G21M; 1.76
S18W; 2.3
G23P; 2.06
D16N; 1.39

Suppose we examine the variant P14T ; what protein stability index value has been reported?
1.15

# query: protein stability index of entry V9M
2.69

Request the reported protein stability index associated with F1S
2.87

Using the record for C22P , report its protein stability index.
1.59

Record request: protein stability index value, item G3H
2.85
